- System: Streptococcus agalactiae
- assay-explanation: Compound was tested for antibacterial activity against Streptococcus agalactiae
- Format: functional
test-readout: MIC (µg/mL)
Answers are plain numbers, in µg/mL.

Illustrative cases are given below, each with its answer.
Request: Supply recorded MIC for N[C@@H](CCl)C(=O)N[C@@H](CCl)C(=O)N[C@@H](CCl)C(=O)O here.
Response: 0.78

Request: Assign MIC to the following record: CC[C@H](C)[C@H](N)C(=O)N[C@@H](CCl)C(=O)O
Response: 3.12

Request: Name the recorded MIC of the item CN[C@@H](C)C(=O)N[C@@H](CCl)C(=O)O in your answer.
Response: 6.25

Let us examine a further case.
Request: Give the value of MIC reported for the following: CC(C)C[C@H](N)C(=O)N[C@@H](CCl)C(=O)O
Response: 1.56

====

- Test system: Escherichia coli
- assay-explanation: Compound was tested for antibacterial activity against Escherichia coli
- Format: functional
test-readout: MIC (µg/mL)
Give bare numbers, in µg/mL.

Here are 3 molecules together with their reported answers.
Request: Entry N[C@@H](Cc1ccccc1)C(=O)N[C@@H](CCl)C(=O)O needs its MIC filled in; supply it.
Response: 25

Request: Provide measured MIC value, entry: CCCC[C@H](N)C(=O)N[C@@H](CCl)C(=O)O
Response: 3.12

Request: Consider the molecule CC[C@H](N)C(=O)N[C@@H](CCl)C(=O)O and give its recorded MIC.
Response: 1.56

Turning to the following molecule.
Request: Please supply the value of reported MIC for the item CN[C@@H](C)C(=O)N[C@@H](CCl)C(=O)O
Response: 6.25

====

Exercise: for every item that follows, state its recorded log10(MIC).
- System: Haemophilus influenzae
- assay-explanation: Compound was tested for antibacterial activity against Hemophilus influenzae
- Format: functional
Units before log transform: µg/mL; reported quantity: MIC; transform: log10.

These solved cases illustrate the format of a correct answer.
Request: Quickly give me recorded log10(MIC) for NCC(=O)N[C@@H](CCl)C(=O)O
Response: -0.70

Request: Tell me measured log10(MIC) for CC(C)[C@H](N)C(=O)N[C@@H](CCl)C(=O)O please.
Response: 1.10

Request: Return the recorded log10(MIC) value; entry: CC[C@H](C)[C@H](N)C(=O)N[C@@H](CCl)C(=O)O
Response: 0.80

Request: Consider the compound CN[C@@H](C)C(=O)N[C@@H](CCl)C(=O)O . State its measured log10(MIC).
Response: 1.10

Request: Identify the reported log10(MIC) for the following entry. N[C@@H](Cc1ccccc1)C(=O)N[C@@H](CCl)C(=O)O
Response: 1.10

Give log10(MIC) for each of the items listed below.
1. CC(C)C[C@H](N)C(=O)N[C@@H](CCl)C(=O)O
2. N[C@@H](CCl)C(=O)N[C@@H](CCl)C(=O)N[C@@H](CCl)C(=O)O
3. O=C(O)[C@H](CCl)NC(=O)[C@@H]1CCCN1
4. CCCC[C@H](N)C(=O)N[C@@H](CCl)C(=O)O
5. CSCC[C@H](N)C(=O)N[C@@H](CCl)C(=O)N[C@@H](CCl)C(=O)O

Response:
[0.80, 0.80, 1.40, 1.40, -0.41]

====

What MIC was measured for each of the following?
- Tested on: Streptococcus agalactiae
- assay-explanation: Compound was tested for antibacterial activity against Streptococcus agalactiae
- Type: functional

Recorded results for 5 compounds are shown here.
Request: Fill in reported MIC for this entry: NCCC(=O)N[C@@H](CCl)C(=O)O
Response: > 100 µg/mL

Request: Supply recorded MIC for C[C@H](N)C(=O)N[C@@H](C)C(=O)N[C@@H](CCl)C(=O)O here.
Response: 12.5 µg/mL

Request: State its MIC for this compound: NC(=O)CC[C@H](N)C(=O)N[C@@H](CCl)C(=O)O
Response: 0.78 µg/mL

Request: Fill in reported MIC for this entry: CC(C)[C@H](N)C(=O)N[C@@H](C)C(=O)N[C@@H](CCl)C(=O)O
Response: 3.12 µg/mL

Request: Tell me measured MIC for CCCC[C@H](N)C(=O)N[C@@H](CCl)C(=O)O please.
Response: < 0.1 µg/mL

Record MIC for all entries; do not skip any.
1. CC(C)[C@H](N)C(=O)N[C@@H](CCl)C(=O)O
2. O=C(O)[C@H](CCl)NC(=O)[C@@H]1CCCN1
3. N[C@@H](CCl)C(=O)N[C@@H](CCl)C(=O)O
4. N[C@@H](Cc1ccccc1)C(=O)N[C@@H](CCl)C(=O)O
5. CC[C@H](N)C(=O)N[C@@H](CCl)C(=O)O

Response:
1.56 µg/mL
12.5 µg/mL
1.56 µg/mL
6.25 µg/mL
< 0.1 µg/mL

Record MIC for all entries; do not skip any.
1. NCC(=O)N[C@@H](CCl)C(=O)O
2. CSCC[C@H](N)C(=O)N[C@@H](CCl)C(=O)N[C@@H](CCl)C(=O)O

Response:
0.39 µg/mL
< 0.1 µg/mL
